FYI, the data here is from ChEMBL document CHEMBL3875233.

# measurement-target: Oxidized purine nucleoside triphosphate hydrolase (Homo sapiens, UniProt P36639)
quantity-name: IC50

*Q* Which IC50 is reported with Oxidized purine nucleoside triphosphate hydrolase (Homo sapiens, UniProt P36639) for this entry: CC1(C)CC2CC(C)(CN2c2ncnc3[nH]cnc23)C1 (stereo unspecified) ?
*A* 100 to 220 nM

---

# test-description: Inhibition of tubulin polymerization in human U87 cells assessed as decrease in cell viability after 72 hrs by Alamar blue assay
# Type: cell-based, U-87MG ATCC
# conditions-used: U-87 MG
quantity-name: EC50

*Q* Query (compound): `O=C(CCCc1ccc(-c2ccccc2F)cc1)Nc1ccc(O)cc1` ; field requested: EC50
*A* < 1000 nM

---

# measurement-target: Mitogen-activated protein kinase 14 (Mus musculus, UniProt P47811)
# Sequence (P47811 whole entry, the tested form may be a part): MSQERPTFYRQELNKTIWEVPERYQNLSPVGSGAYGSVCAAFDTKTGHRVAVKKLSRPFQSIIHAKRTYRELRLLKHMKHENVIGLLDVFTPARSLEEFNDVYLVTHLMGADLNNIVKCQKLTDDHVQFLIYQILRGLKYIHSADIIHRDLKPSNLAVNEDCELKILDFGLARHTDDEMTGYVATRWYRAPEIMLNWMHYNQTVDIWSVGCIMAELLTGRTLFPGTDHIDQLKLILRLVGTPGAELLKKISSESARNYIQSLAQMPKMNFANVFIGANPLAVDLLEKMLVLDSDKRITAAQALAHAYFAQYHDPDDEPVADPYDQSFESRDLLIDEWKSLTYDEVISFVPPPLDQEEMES
# test-description: Inhibition of mouse N-terminal 5His-tagged p38alpha assessed as decrease in 6His-tagged MK2a (51 to 400 residues) phosphorylation in presence of [gamma-33P]-ATP by scintillation counting method
quantity-name: pIC50
API: returns pIC50 as number; meaning -log10 of concentration in mol/L.

*Q* Query (compound): `O=C(CCCc1ccc(-c2ccccc2F)cc1)Nc1ccc(O)cc1` ; field requested: pIC50
*A* 6.48

---

# measurement-target: Ribosyldihydronicotinamide dehydrogenase [quinone] (Homo sapiens)
# Sequence (P16083 whole entry): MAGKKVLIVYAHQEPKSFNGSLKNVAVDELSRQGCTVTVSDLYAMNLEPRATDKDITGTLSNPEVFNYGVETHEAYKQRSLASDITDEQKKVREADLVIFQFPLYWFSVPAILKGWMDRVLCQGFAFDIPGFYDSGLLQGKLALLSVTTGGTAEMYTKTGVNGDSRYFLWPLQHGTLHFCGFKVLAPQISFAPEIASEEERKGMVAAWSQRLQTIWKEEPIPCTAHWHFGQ
quantity-name: IC50 (nM)
Supply the numeric figure in nM, leaving out any unit text.

*Q* Which IC50 is reported with Ribosyldihydronicotinamide dehydrogenase [quinone] (Homo sapiens) for this entry: `Cc1cn(-c2cc(NC(=O)c3ccc(C)c(Nc4nccc(-c5cccnc5)n4)c3)cc(C(F)(F)F)c2)cn1` ?
*A* 1800

---

# measurement-target: Receptor-interacting serine/threonine-protein kinase 1 (Homo sapiens)
# Sequence (Q13546 whole entry): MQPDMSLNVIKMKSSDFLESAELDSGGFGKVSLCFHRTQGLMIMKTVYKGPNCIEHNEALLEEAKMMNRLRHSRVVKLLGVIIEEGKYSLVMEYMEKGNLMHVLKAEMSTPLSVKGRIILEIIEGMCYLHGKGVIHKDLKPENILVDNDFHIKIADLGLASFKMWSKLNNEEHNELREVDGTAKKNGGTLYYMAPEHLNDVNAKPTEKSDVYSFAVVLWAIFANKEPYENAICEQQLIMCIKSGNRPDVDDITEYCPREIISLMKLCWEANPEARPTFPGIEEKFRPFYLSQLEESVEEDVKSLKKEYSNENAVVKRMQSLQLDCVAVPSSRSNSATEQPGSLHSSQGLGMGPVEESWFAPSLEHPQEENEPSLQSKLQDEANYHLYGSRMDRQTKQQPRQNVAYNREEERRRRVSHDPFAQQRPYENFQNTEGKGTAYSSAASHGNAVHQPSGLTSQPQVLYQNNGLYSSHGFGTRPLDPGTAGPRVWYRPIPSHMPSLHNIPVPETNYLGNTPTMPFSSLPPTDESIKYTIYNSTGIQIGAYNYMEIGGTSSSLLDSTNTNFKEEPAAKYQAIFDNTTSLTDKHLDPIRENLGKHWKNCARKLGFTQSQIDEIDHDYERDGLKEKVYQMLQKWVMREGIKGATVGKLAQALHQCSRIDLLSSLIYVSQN
# test-description: Inhibition of recombinant human GST-fused RIPK1 (1 to 497 residues) expressed in baculovirus infected insect Sf9 cells in presence of 32P-gamma-ATP after 30 mins by autoradiogram-based Western blot method
quantity-name: pIC50
API: returns pIC50 as number; meaning -log10 of concentration in mol/L.

*Q* Which pIC50 is reported with Receptor-interacting serine/threonine-protein kinase 1 (Homo sapiens) for this entry: CN1C(=O)C(Cc2c[nH]c3ccccc23)NC1=S (stereo unspecified) [NECROSTATIN] ?
*A* 6.74

---

# measurement-target: Bromodomain-containing protein 3 (Homo sapiens, UniProt Q15059)
# Sequence (Q15059 whole entry): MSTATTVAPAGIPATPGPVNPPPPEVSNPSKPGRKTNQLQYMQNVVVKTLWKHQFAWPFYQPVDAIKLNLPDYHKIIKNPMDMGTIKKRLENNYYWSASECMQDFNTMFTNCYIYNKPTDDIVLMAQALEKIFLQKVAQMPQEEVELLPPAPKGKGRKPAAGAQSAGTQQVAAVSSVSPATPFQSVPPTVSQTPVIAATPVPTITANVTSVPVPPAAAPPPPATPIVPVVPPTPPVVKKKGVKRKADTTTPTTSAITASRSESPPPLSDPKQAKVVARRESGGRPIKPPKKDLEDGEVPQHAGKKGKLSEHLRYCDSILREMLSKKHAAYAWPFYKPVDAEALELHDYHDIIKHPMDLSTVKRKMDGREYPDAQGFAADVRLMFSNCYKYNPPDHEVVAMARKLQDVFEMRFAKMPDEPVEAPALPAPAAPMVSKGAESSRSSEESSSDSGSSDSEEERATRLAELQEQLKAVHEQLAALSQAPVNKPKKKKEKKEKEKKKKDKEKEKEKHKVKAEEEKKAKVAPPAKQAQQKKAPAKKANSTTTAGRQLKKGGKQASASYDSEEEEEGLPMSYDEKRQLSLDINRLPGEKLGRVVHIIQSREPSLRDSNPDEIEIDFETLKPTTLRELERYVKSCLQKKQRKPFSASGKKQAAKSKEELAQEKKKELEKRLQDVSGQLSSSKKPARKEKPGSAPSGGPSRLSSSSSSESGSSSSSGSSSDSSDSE
# test-description: Inhibition of immobilized N-LY294002 bead binding to BRD3 (unknown origin) expressed in HEK293T cell nuclear extract incubated for 1 hr by LC-MS/MS analysis
quantity-name: IC50 (µM)
Supply the numeric figure in µM, leaving out any unit text.

*Q* Query (molecule): `O=c1cc(N2CCOCC2)oc2c(-c3ccccc3)cccc12` ; field requested: IC50
*A* 13.7

*Q* Query (molecule): `O=c1cc(N2CCNCC2)oc2c(-c3ccccc3)cccc12` ; field requested: IC50
*A* 11.5

---

# measurement-target: MAP kinase-activated protein kinase 2 (Homo sapiens, UniProt P49137)
# Sequence (P49137 whole entry, the tested form may be a part): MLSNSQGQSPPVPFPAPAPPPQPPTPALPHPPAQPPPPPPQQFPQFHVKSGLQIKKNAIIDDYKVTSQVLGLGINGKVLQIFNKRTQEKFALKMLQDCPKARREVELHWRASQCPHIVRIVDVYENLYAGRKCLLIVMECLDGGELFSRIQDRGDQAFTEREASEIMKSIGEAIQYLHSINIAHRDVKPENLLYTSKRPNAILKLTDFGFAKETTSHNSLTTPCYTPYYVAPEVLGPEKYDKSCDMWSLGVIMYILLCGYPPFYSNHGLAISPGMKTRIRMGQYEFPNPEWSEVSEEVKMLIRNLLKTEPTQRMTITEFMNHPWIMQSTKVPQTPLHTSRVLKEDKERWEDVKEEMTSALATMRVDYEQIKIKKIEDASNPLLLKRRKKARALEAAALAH
# test-description: Inhibition of recombinant MK2 (45 to 400 residues) (unknown origin) using fluorescein isothiocyanate-KKKALSRQLSVAA as substrate
quantity-name: pKi
API: returns pKi as number; meaning -log10 of concentration in mol/L.

*Q* Query (compound): `Cc1ccc(-c2ccc3c(ccc4sc5c(c43)NC[C@@H](C)NC5=O)n2)cn1` ; field requested: pKi
*A* 8.30

---

# measurement-target: Ferrochelatase, mitochondrial (Homo sapiens)
# Sequence (P22830 whole entry): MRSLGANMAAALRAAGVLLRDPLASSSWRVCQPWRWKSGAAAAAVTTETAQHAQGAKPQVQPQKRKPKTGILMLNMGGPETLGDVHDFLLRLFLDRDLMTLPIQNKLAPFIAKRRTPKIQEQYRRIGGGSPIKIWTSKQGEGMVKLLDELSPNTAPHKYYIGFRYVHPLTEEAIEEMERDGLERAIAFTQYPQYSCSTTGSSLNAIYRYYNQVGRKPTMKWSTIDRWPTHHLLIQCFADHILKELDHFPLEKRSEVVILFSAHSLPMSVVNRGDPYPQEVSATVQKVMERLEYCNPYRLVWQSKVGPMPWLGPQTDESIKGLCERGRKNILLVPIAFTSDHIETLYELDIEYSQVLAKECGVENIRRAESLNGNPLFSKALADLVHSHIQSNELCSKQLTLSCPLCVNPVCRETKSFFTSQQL
# test-description: Stabilization of FECH in human K562 cells after 1 hr by thermal shift assay
quantity-name: EC50 (µM)
Supply the numeric figure in µM, leaving out any unit text.

*Q* Query (compound): `CCCS(=O)(=O)Nc1ccc(F)c(C(=O)c2c[nH]c3ncc(-c4ccc(Cl)cc4)cc23)c1F` ; field requested: EC50
*A* 5.01

---

# measurement-target: Bromodomain-containing protein 4 (Homo sapiens)
quantity-name: Kd (µM)
Supply the numeric figure in µM, leaving out any unit text.

// known answers, use as guide
Oc1ccc(-c2nc(-c3ccc(F)cc3)c(-c3ccncc3)[nH]2)cc1    3.4
CN(c1ccccc1CNc1nc(Nc2ccc3c(c2)CC(=O)N3)ncc1C(F)(F)F)S(C)(=O)=O    0.445

*Q* Which Kd is reported with Bromodomain-containing protein 4 (Homo sapiens) for this entry: `CC[C@@H]1C(=O)N(C)c2cnc(Nc3ccc(C(=O)N[C@H]4CC[C@H](N5CCN(CC6CC6)CC5)CC4)cc3OC)nc2N1C(C)C` ?
*A* 0.079

---

# measurement-target: Indoleamine 2,3-dioxygenase 1 (Homo sapiens, UniProt P14902)
# Sequence (P14902 whole entry): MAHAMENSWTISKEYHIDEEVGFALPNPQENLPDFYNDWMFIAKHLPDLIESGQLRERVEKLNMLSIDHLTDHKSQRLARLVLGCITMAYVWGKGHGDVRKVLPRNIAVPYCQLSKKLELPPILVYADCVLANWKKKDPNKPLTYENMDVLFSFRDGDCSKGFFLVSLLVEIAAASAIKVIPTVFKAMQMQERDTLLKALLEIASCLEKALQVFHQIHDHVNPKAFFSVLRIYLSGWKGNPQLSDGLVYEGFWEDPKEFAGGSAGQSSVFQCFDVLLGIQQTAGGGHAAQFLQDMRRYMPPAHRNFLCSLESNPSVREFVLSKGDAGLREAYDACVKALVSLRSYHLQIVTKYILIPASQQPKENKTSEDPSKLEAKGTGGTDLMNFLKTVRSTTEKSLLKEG
# test-description: Inhibition of recombinant human IDO using L-tryptophan as substrate after 60 mins
quantity-name: IC50 (µM)
Supply the numeric figure in µM, leaving out any unit text.

*Q* Query (compound): CN1C(=O)C(Cc2c[nH]c3ccccc23)NC1=S (stereo unspecified) ; field requested: IC50
*A* 115

---

Each entry below carries its reported IC50.
# measurement-target: Bromodomain-containing protein 4 (Homo sapiens)
# test-description: Inhibition of immobilized N-LY294002 bead binding to C-terminal Flag-tagged BRD4 (unknown origin) expressed in HEK293T cell nuclear extract incubated for 1 hr by LC-MS/MS analysis
# Design: species or system HEK-293T
Supply the numeric figure in µM, leaving out any unit text.

O=c1cc(N2CCNCC2)oc2c(-c3ccccc3)cccc12    9.05

Let us examine a further case.
*Q* Query (molecule): `O=c1cc(N2CCOCC2)oc2c(-c3ccccc3)cccc12` ; field requested: IC50
*A* 12.4

---

# measurement-target: Casein kinase I isoform epsilon (Homo sapiens, UniProt P49674)
# Sequence (P49674 whole entry, canonical isoform): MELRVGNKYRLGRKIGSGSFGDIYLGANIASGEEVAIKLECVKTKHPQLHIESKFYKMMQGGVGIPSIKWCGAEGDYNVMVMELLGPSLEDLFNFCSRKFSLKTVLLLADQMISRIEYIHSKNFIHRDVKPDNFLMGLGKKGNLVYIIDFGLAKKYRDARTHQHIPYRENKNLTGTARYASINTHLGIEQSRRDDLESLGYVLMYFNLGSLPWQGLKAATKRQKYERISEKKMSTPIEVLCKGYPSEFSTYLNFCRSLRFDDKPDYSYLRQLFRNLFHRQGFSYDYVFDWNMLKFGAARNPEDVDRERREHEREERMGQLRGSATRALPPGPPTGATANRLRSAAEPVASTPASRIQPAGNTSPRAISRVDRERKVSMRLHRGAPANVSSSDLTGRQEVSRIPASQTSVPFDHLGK
# test-description: Inhibition of human CK1epsilon using casein as substrate in presence of [gamma-32P]-ATP
pIC50: −log10 of the molar value.
quantity-name: pIC50

*Q* Query (molecule): `COc1cc(OC)c(/C=C2/C(=O)Nc3ccccc32)c(OC)c1` ; field requested: pIC50
*A* 4.60 to 6.00

---

# measurement-target: Phosphatidylinositol 4,5-bisphosphate 3-kinase catalytic subunit delta isoform (Homo sapiens)
# Sequence (O00329 whole entry): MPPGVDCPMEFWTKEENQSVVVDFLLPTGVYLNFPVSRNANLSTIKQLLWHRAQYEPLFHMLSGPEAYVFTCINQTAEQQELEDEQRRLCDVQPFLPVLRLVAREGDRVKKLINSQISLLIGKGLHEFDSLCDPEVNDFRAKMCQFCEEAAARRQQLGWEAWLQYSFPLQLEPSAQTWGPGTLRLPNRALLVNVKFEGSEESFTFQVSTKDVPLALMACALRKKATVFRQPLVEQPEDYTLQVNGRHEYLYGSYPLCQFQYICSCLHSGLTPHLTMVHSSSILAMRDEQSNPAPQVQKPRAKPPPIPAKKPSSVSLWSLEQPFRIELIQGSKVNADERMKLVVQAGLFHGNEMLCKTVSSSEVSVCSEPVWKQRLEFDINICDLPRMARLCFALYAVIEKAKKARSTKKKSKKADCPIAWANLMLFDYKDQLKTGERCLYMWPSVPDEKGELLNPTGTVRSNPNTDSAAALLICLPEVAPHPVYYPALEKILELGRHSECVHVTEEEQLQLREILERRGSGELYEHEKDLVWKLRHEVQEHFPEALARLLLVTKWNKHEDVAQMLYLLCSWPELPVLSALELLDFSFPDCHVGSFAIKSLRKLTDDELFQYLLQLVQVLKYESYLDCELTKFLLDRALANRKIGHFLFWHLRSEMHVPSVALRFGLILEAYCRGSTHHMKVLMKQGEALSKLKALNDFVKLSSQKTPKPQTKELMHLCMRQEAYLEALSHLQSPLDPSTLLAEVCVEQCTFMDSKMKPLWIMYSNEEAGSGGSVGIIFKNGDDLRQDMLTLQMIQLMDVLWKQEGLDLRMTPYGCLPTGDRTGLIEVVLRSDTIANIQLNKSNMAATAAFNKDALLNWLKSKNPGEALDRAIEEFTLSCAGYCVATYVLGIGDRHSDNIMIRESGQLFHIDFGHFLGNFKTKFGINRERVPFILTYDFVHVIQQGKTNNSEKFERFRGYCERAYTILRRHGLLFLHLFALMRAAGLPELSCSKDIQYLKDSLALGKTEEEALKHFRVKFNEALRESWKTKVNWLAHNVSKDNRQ
# test-description: Inhibition of immobilized N-LY294002 bead binding to PI3Kdelta (unknown origin) expressed in HEK293T cells incubated for 1 hr by LC-MS/MS analysis
quantity-name: IC50 (nM)
Supply the numeric figure in nM, leaving out any unit text.

*Q* Query (molecule): O=c1cc(N2CCOCC2)oc2c(-c3ccccc3)cccc12 [LY-294002] ; field requested: IC50
*A* 1530
